The measurements presented in this section are drawn from the supplement of paper PMC9112550.

system: Escherichia coli TOP10; assay: shrunken log2 fold change of peptide-encoding DNA abundance (4.5 h post-induction vs induction); higher = less antimicrobial activity (less host growth inhibition); conditions: time post-induction: 4.5 h; library: site-saturation at positions 5, 18, 19, 20
Classify as follows. Reported shrunken log2 fold change greater than or equal to -0.2: Y. Reported shrunken log2 fold change below: N.

# example entries with known answers
RRIRARPPRLPRPRPRPNRTPRP Y
RRIRPRPPRLPRPRPRPKDPPRP Y

Note: attention shifts to another entry.
Entry "RRIRPRPPRLPRPRPRPATLPRP" : is its shrunken log2 fold change no less than -0.2? Y

====

Would you kindly list shrunken log2 fold change for each of these sequences?
system: Escherichia coli TOP10; assay: shrunken log2 fold change of peptide-encoding DNA abundance (4.5 h post-induction vs induction); higher = less antimicrobial activity (less host growth inhibition); details: time post-induction: 4.5 h; library: site-saturation at positions 5, 18, 19, 20
Numbers only.

RRIRERPPRLPRPRPRPDQVPRP -0.148

For each of the sequences below, note its shrunken log2 fold change.
1. RRIRVRPPRLPRPRPRPVYMPRP
2. RRIRIRPPRLPRPRPRPQSVPRP
3. RRIRPRPPRLPRPRPRPLKWPRP
4. RRIRTRPPRLPRPRPRPTDPPRP

1. -0.184
2. -0.295
3. 0.398
4. -0.198

For each of the sequences below, note its shrunken log2 fold change.
1. RRIRMRPPRLPRPRPRPKDGPRP
2. RRIRIRPPRLPRPRPRPGLPPRP
3. RRIRMRPPRLPRPRPRPYKSPRP

1. -0.0156
2. 0.209
3. -0.215

====

Would you kindly list shrunken log2 fold change for each of these sequences?
tested on: Escherichia coli TOP10; experiment: shrunken log2 fold change of peptide-encoding DNA abundance (4.5 h post-induction vs induction); higher = less antimicrobial activity (less host growth inhibition); conditions: time post-induction: 4.5 h; library: site-saturation at positions 5, 18, 19, 20;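 further: peptides expressed intracellularly from a pBAD plasmid library in pooled LB shake-flask culture, induced with 0.3% L-arabinose, DNA abundance read by NGS, three biological replicates, DESeq2 with apeglm shrinkage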
Numbers only.

Below, 10 sequences whose answers are already recorded.
RRIRHRPPRLPRPRPRPLPAPRP 0.192
RRIRDRPPRLPRPRPRPMGGPRP 0.0169
RRIRYRPPRLPRPRPRPCNSPRP -0.168
RRIRDRPPRLPRPRPRPDTDPRP 0.0647
RRIRERPPRLPRPRPRPNLTPRP -0.171
RRIRNRPPRLPRPRPRPIDWPRP 0.0533
RRIRIRPPRLPRPRPRPLPEPRP 0.0361
RRIRMRPPRLPRPRPRPVTNPRP 0.0903
RRIRGRPPRLPRPRPRPLSWPRP 0.781
RRIRLRPPRLPRPRPRPALRPRP 0.178

For each of the sequences below, note its shrunken log2 fold change.
1. RRIRCRPPRLPRPRPRPLRFPRP
2. RRIRPRPPRLPRPRPRPMKHPRP
3. RRIRTRPPRLPRPRPRPGVVPRP
4. RRIRDRPPRLPRPRPRPMNAPRP
5. RRIRKRPPRLPRPRPRPKHKPRP
6. RRIRSRPPRLPRPRPRPATIPRP
7. RRIRIRPPRLPRPRPRPEQMPRP
8. RRIRIRPPRLPRPRPRPNPGPRP

1: 0.0668; 2: 0.0348; 3: 0.0177; 4: -0.0396; 5: 0.362; 6: 0.115; 7: 0.224; 8: -0.209

For each of the sequences below, note its shrunken log2 fold change.
1. RRIRHRPPRLPRPRPRPKPLPRP
2. RRIRERPPRLPRPRPRPIIPPRP
3. RRIRVRPPRLPRPRPRPTYKPRP
4. RRIRRRPPRLPRPRPRPRLLPRP
5. RRIRVRPPRLPRPRPRPDGAPRP
6. RRIRIRPPRLPRPRPRPCNIPRP

1. 0.127
2. -0.835
3. -0.512
4. 0.474
5. 0.413
6. -0.106

For each of the sequences below, note its shrunken log2 fold change.
1. RRIRYRPPRLPRPRPRPMCDPRP
2. RRIRFRPPRLPRPRPRPSFGPRP
3. RRIRHRPPRLPRPRPRPTYFPRP
4. RRIRVRPPRLPRPRPRPWWPPRP
5. RRIRWRPPRLPRPRPRPEQTPRP
6. RRIRMRPPRLPRPRPRPCAWPRP

-0.987
-0.112
-0.309
0.162
-0.0026
0.513

For each of the sequences below, note its shrunken log2 fold change.
1. RRIRRRPPRLPRPRPRPVFFPRP
2. RRIRMRPPRLPRPRPRPMMDPRP

1. 0.255
2. 0.0325
